# METHOD_DESCRIPTION: Maillard reaction (coloration with glycine)
# Format: physicochemical
# CONDITION_SET: 10 w/v % saccharide, one w/v % glycine, 50 mM phosphate buffer pH 7.0, 100° C., 90 min; 1-cm cell
VALUE_TYPE: Coloration degree (at a wavelength of 480 nm)
Answer field: number only, no words.

(Q) May I ask what Coloration degree (at a wavelength of 480 nm) has been recorded for OC[C@H]1O[C@H](OC[C@H]2O[C@H](O[C@H]3O[C@H](CO)[C@@H](O)[C@H](O)[C@H]3O)[C@H](O)[C@@H](O)[C@@H]2O)[C@H](O)[C@@H](O)[C@@H]1O ?
(A) 0.021

(Q) Next up: OC[C@H]1O[C@H](O[C@H]2O[C@H](CO)[C@@H](O)[C@H](O)[C@H]2O)[C@H](O)[C@@H](O)[C@@H]1O [Trehalose, trehalose, reference compound]
(A) 0.007

New cases:
(Q) May I ask what Coloration degree (at a wavelength of 480 nm) has been recorded for OC[C@H]1O[C@H](OC[C@H]2O[C@H](O[C@H]3O[C@H](CO[C@H]4O[C@H](CO)[C@@H](O)[C@H](O)[C@H]4O)[C@@H](O)[C@H](O)[C@H]3O)[C@H](O)[C@@H](O)[C@@H]2O)[C@H](O)[C@@H](O)[C@@H]1O [α-Isomaltosyl α-isomaltoside] ?
(A) 0.016

(Q) Next up: OC[C@H]1O[C@H](OC[C@H]2O[C@H](OC[C@H]3O[C@H](O[C@H]4O[C@H](CO)[C@@H](O)[C@H](O)[C@H]4O)[C@H](O)[C@@H](O)[C@@H]3O)[C@H](O)[C@@H](O)[C@@H]2O)[C@H](O)[C@@H](O)[C@@H]1O [α-Isomaltotriosyl α-glucoside]
(A) 0.019
